Molecular target: T1, Human VSIG4-S-His (human, UniProt Q9Y279 20-283)
T1 construct: short isoform ECD with His tag; also called hVSIG4-S; VISG4-S-His
T1 sequence: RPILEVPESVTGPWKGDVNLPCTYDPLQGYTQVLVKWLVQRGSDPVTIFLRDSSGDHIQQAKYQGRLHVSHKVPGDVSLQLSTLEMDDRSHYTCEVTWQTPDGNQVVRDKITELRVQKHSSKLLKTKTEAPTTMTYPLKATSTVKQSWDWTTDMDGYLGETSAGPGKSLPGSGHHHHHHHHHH
Experiment: BLI (Octet), IgG on AHC sensor, antigen 100 nM
quantity.measured: pKd
Would you please state pKd, meaning minus log10 of the concentration in mol/L, as a bare number?

These recorded examples may help you get a feel for the data.
>  <binder>
15C03 mouse/human chimeric IgG4 (S228P) kappa (antibody, V domains shown) VH: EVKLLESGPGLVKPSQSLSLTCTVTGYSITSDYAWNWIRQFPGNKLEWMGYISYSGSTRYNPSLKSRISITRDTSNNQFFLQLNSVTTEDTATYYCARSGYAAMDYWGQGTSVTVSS VL: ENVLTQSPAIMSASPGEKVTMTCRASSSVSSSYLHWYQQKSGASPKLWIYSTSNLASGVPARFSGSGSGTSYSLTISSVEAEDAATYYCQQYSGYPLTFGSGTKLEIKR

>  <pKd>
7.73

$$$$
>  <binder>
12A12 mouse/human chimeric IgG4 (S228P) kappa (antibody, V domains shown) VH: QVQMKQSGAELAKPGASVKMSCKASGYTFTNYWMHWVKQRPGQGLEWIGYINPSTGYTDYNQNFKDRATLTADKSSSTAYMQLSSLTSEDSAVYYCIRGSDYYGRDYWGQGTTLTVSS VL: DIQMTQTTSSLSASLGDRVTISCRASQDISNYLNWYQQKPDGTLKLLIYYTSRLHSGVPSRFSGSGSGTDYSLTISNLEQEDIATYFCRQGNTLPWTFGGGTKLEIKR

>  <pKd>
7.80

$$$$
>  <binder>
12A08 mouse/human chimeric IgG4 (S228P) kappa (antibody, V domains shown) VH: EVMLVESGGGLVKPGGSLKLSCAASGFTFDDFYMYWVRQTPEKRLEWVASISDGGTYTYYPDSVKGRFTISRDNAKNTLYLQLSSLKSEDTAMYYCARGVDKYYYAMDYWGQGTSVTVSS VL: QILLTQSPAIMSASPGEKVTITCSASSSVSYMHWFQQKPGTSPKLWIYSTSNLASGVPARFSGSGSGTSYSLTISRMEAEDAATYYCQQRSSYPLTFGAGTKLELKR

>  <pKd>
7.73

$$$$

# next binder below
For 16E03 mouse/human chimeric IgG4 (S228P) kappa (antibody, V domains shown) VH: QVQLQQSGAELARPGASVKMSCKASGYTFTSYTMHWIKQRPGQGLEWIGYINPSSGHTYYNQKFKDKATLTPDKSSSTAYMQLTSLTSEDSAVYYCARRIPTAYAMDYWGQGTSVTVSS VL: EIQMTQSHKFMSTSVGDRVSITCKASQDVGTAVAWYQQKPGQSPKLLIYWASTRHTGVPDRFTGSGSGTDFTLTISNVQSEDLADYFCQQYSSYPLTFGAGTKLELKR , what is its reported pKd? 7.31
